Task for the reader: assign each of the following molecules its reported melting point.

Read the entry CC1(C)CC(=O)C=C(OC(=O)c2cccc3nnsc23)C1 and write its reported melting point.
131 to 133 °C

Read the entry CC(C)n1cc(-c2nc(C(N)=O)c(N)nc2-c2ccc(C#N)cc2)ccc1=O and write its reported melting point.
292 °C

Read the entry C=Cc1ccc2c(c1)c1ccccc1n2CC and write its reported melting point.
66 to 67 °C

Read the entry N#CC(C(=O)c1ccc(-c2nnn[nH]2)cc1)=C1CCCCN1 and write its reported melting point.
> 220 °C

Read the entry CN(C(=O)CCSC(c1ccccc1)(c1ccccc1)c1ccccc1)c1cn(-c2cccnc2)nc1Cl and write its reported melting point.
62 to 64 °C

Read the entry CC(C)(Nc1ccc(Cl)cc1[N+](=O)[O-])C(=O)O and write its reported melting point.
162 to 164 °C

Read the entry COc1cc(OC)nc(Oc2ccc3ccccc3c2C(=O)OCC=NOCC=CCl)n1 and write its reported melting point.
77 to 83 °C

Read the entry CCOC(=O)c1ccc(N2CCCC2=O)cc1 and write its reported melting point.
94 to 95 °C

Read the entry Oc1ccccc1-c1nc(-c2ccc(-c3ccccc3)cc2)nc(-c2ccc3ccccc3c2)n1 and write its reported melting point.
227 to 239 °C

Read the entry CSC(=N)NS(=O)(=O)c1c(Cl)sc(Cl)c1Br and write its reported melting point.
113 to 115 °C

Read the entry CCOCc1nc2c(N)nc3cc(OCCCCCCNC(=O)NC(C)C)ccc3c2n1CC(C)(C)NC(=O)NC(C)C and write its reported melting point.
205 to 209 °C

Read the entry NP(N)(=S)N1CCCCC1 and write its reported melting point.
97 to 102 °C

Read the entry COc1cccc(Cc2cnc(NCCSCc3nccs3)[nH]c2=O)c1 and write its reported melting point.
104 to 106 °C

Read the entry N#Cc1cc(N)ccc1N1CCCC1 and write its reported melting point.
113 °C

Read the entry Cc1cc(O)cc(C)c1-c1cccc(CO)c1 and write its reported melting point.
175 °C

Read the entry CCC(Cc1cc(C(C)(C)C)c(O)c(C(C)(C)C)c1)(C(=O)OCC1(C)C(C)(C)C=C(O)CC1(C)C)C(=O)OCC1(C)C(C)(C)C=C(O)CC1(C)C (stereo unspecified) and write its reported melting point.
166 °C

Read the entry NS(=O)(=O)c1cnc(NC(=O)c2cnn3c(C(F)F)cc(-c4ccc(C(F)(F)F)cc4)nc23)s1 and write its reported melting point.
311 °C

Read the entry CC(=O)NC[C@H]1CN(c2ccc(N3CCC(Cc4noc(-c5ccccc5)n4)CC3)c(F)c2)C(=O)O1 and write its reported melting point.
144 to 146 °C

Read the entry O=C(O)c1c(-c2ccccc2)oc2ccccc2c1=O and write its reported melting point.
298 to 300 °C

Read the entry O=C(Cc1ccccc1Cl)c1ccc(I)cc1 and write its reported melting point.
105 to 106 °C

Read the entry O=C(c1ncco1)c1ccc([N+](=O)[O-])cc1Cl and write its reported melting point.
124 to 125 °C

###

Task for the reader: assign each of the following molecules its reported melting point.

Read the entry CCC1CCCCN1C(=O)Nc1ccccc1CCc1cc(C(C)(C)C)c(O)c(C(C)(C)C)c1 (stereo not given) and write its reported melting point.
137 to 138 °C

Read the entry CNc1nc(C#N)c(-c2ccncc2)s1 and write its reported melting point.
192 to 195 °C

Read the entry CC(C)(C)n1cc(C(=O)O)c(=O)c2cc(F)c(F)cc21 and write its reported melting point.
> 260 °C

Read the entry COc1cc2cc[nH]c2cc1OCCCN1CCC(c2noc3cc(F)ccc23)CC1 and write its reported melting point.
156 to 158 °C

Read the entry CNC(=O)Nc1cc(-c2c(-c3ccc(F)c(C)c3)nc3cccnn23)ccn1 and write its reported melting point.
225 to 227 °C

Read the entry COc1cc(C(=O)CCCc2ccccc2)cc([N+](=O)[O-])c1O and write its reported melting point.
120 to 121 °C

Read the entry CNC(=O)c1cccc(NC(=O)Cc2c(O)ccc3ccccc23)c1 and write its reported melting point.
229 to 230 °C

Read the entry N#Cc1ccc(NC2=C(Cl)C(=O)c3ccccc3C2=O)cc1 and write its reported melting point.
188 to 189 °C

Read the entry CCn1c(=O)c2[nH]c(/C=C/c3cccc(OC)c3OC)nc2n(CC)c1=O and write its reported melting point.
288 to 289 °C

Read the entry Cc1nc(-c2ccc(F)cc2)c(CO)c(C(C)C)c1C#N and write its reported melting point.
150 °C

Hello, the source for this data is a melting point compilation (Tetko et al.; mined from patent text by program, amines drawn as free bases though some values may be those of a salt), in case you need it.
